Provenance of the data: ChEMBL document CHEMBL2390881

Some compounds, each annotated with its measured IC50.
# SUBJECT_OF_TEST: Thioredoxin reductase (Mycobacterium tuberculosis, UniProt P9WHH1)
# Sequence (P9WHH1 whole entry): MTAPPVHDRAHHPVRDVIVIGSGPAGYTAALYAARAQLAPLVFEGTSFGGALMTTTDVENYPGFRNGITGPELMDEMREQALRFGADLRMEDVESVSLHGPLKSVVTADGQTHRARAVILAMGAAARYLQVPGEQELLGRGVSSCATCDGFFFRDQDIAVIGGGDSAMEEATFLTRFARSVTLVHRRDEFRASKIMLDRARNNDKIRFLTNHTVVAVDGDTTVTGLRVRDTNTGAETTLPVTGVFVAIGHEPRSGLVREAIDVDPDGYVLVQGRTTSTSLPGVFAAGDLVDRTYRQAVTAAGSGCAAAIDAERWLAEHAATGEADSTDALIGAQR
VALUE_KIND: IC50 (µM)

1) O=C(O)[C@H](Cc1cc2ccccc2[nH]1)NCc1c[nH]c2ccccc12; 30
2) c1ccc2sc(CNc3ccc(N4CCCCC4)cc3)nc2c1; 15.8
3) Nc1ccc(N2CCCCC2)cc1; 33.4
4) CSCCNC1CCN(c2ccc(NC(=O)CCCCc3ccccc3)cc2)CC1; 100
5) COc1ccc2nc(C)cc(Nc3ccc(O)cc3)c2c1; 12.5
6) NC1=C(c2nc(-c3ccccc3)cs2)C(=O)CN1c1ccc(S(N)(=O)=O)cc1; 200
7) CC(c1c[nH]nc1-c1ccccc1)N1CCC(CCC(=O)Nc2ccccc2)CC1 (centres undefined); 15
8) Nc1nc(-c2cc3ccc(O)cc3oc2=O)cs1; 100
9) Fc1cccc(Cl)c1CNc1ccc(N2CCCCC2)cc1; 15.3
